tested on: HL-60(TB) leukemia; assay: NCI-60 one-dose screen, 48 h (100 = growth as untreated, 0 = no growth, -100 = all killed); details: 10 µM unless noted
About 83,000 compounds went through this panel and 20% of them were active in at least one assay; those are over-represented in the sample as a whole.
Answer each item with its documented growth.
# value in %; strip the unit string

Give its growth value. Item: N/C(=N\c1nc2ccccc2s1)NC(=O)Nc1cccc2ccccc12
-26.8

Give its growth value. Item: Nc1cc2c(cc1Cl)-c1ccc([N+](=O)[O-])cc1/C2=N\O
89.5

Give its growth value. Item: O=C(/C=C/c1cccc(B(O)O)c1)c1cccc(B(O)O)c1
-13.8

Give its growth value. Item: CC(=O)N(C)C1=Nc2ccc(Cl)cc2C(c2ccccc2)=[N+]([O-])C1
135

Give its growth value. Item: CSc1nc2ccc(C)cc2cc1/C=C1/C=C(c2ccccc2)NC1=O
87.4

Give its growth value. Item: Cc1ccc(-c2nc3nc(-c4ccc(Br)cc4)nc(N4CCCNCC4)c3o2)cc1
-47.3

Give its growth value. Item: Cc1oc2ccc(O)c(CN3CCCCCC3)c2c1C(=O)Nc1ccc(C(F)(F)F)cc1
83

Give its growth value. Item: O=C1NC(=O)[C@@H](c2cn3c4c(cccc24)CCC3)[C@@H]1c1c[nH]c2ccccc12
-21

Give its growth value. Item: O=C(O)CCN1C(=O)/C(=C/C(Cl)=C/c2ccccc2)SC1=S
5.78

Give its growth value. Item: Cn1cc(-c2nonc2-c2cn(C)c3ccccc23)c2ccccc21
-27

Source of measurements: PubChem BioAssay (NCI)
